These measurements were taken from patent EP4667483A1.

- TARGET_OF_ASSAY: T1, human transferrin receptor (hTfR) (human, UniProt P02786 89-760)
- T1 construct: Recombinant hTfR; at pH 7.4 captured on the chip by an anti-His tag antibody, at pH 6.0 immobilized on an NTA chip, so it carries a His tag; also called human TfR; TfR1
- PROTOCOL_SUMMARY: SPR, KD at pH 6.0 over KD at pH 7.4
Bridge positions count the residues as written; N and C are the ends. Square brackets hold non-standard residues; d marks the D form. Ends that are not written are not given here. NMePhe(4-COOH) = CN[C@@H](Cc1ccc(C(=O)O)cc1)C(=O)O; NMePhe(3-Cl) = CN[C@@H](Cc1cccc(Cl)c1)C(=O)O; 3Pal(6-NH2) = Nc1ccc(C[C@H](N)C(=O)O)cn1; NMeW = CN[C@@H](Cc1c[nH]c2ccccc12)C(=O)O; NMeY = CN[C@@H](Cc1ccc(O)cc1)C(=O)O; Nva(3-Et) = CCC(CC)[C@H](N)C(=O)O; NMeF = CN[C@@H](Cc1ccccc1)C(=O)O
Decision: dependency KD pH6.0/7.4 compared against 3; not below it gives met, below it gives not met.

Worked examples, 3 binders total:
INPUT: Exam item: decide whether the reported dependency KD pH6.0/7.4 for {CH2CO}-AV[NMeF]V[NMeW]NYY[Nva(3-Et)]IKRY[NMePhe(4-COOH)]C (thioether N-15; not fully specified (C-terminus)) [894_0593] is at least 3.
OUTPUT: not met

INPUT: Exam item: decide whether the reported dependency KD pH6.0/7.4 for {CH2CO}-AV[NMeF]V[NMeW]NYY[Nva(3-Et)]SKRY[NMeY]C (thioether N-15; not fully specified (C-terminus)) [894_0611] is at least 3.
OUTPUT: not met

INPUT: Exam item: decide whether the reported dependency KD pH6.0/7.4 for AVXVWNXYIIKRYXC (not fully specified; as printed: A-V-MeF-V-W-N-3Py6NH2-Y-I-I-K-R-Y-MeY-C; linker PEG4c; cyclic (ClAc-Ala1 thioether to Cys15)) [894_0601] is at least 3.
OUTPUT: met

New cases:
INPUT: Exam item: decide whether the reported dependency KD pH6.0/7.4 for {CH2CO}-AV[NMePhe(3-Cl)]V[NMeW]N[3Pal(6-NH2)]YI[code s]KRY[NMeY]C (thioether N-15; also: linker PEG4c attached, place not given here, Position 10 is printed as lower-case 's') [894_0620] is at least 3.
OUTPUT: met
